So I've got a bunch of substances here, and I need their Value (binding intensity of His-tagged CD38), LOOP15 conformational peptide array values.
Biological target: recombinant His-tagged CD38 (Homo sapiens)
Test: Pepscan-based ELISA of His-tagged CD38 on CD31 peptide arrays
Assay type: binding
Settings: mimic type LOOP15 (single loop, mP2 CLIPS); sample with the highest signal
The figure you give is taken to be in mAU; do not add the unit.

Prompt line: Need Value (binding intensity of His-tagged CD38), LOOP15 conformational peptide array, item 164 (CNSRDQNFVILEFPVEC) [compound 164]
Response line: 965

Prompt line: Need Value (binding intensity of His-tagged CD38), LOOP15 conformational peptide array, item 261 (CRISKVSSIVVNITELC) [compound 261]
Response line: 567

Prompt line: Need Value (binding intensity of His-tagged CD38), LOOP15 conformational peptide array, item 256 (CTIQVTHLAQEFPEIIC) [compound 256]
Response line: 504

Prompt line: Need Value (binding intensity of His-tagged CD38), LOOP15 conformational peptide array, item 242 (CKSTESYFIPEVRIYDC) [compound 242]
Response line: 528

Prompt line: Need Value (binding intensity of His-tagged CD38), LOOP15 conformational peptide array, item 247 (CKREKNSRDQNFVILEC) [compound 247]
Response line: 516

Prompt line: Need Value (binding intensity of His-tagged CD38), LOOP15 conformational peptide array, item 248 (CREKNSRDQNFVILEFC) [compound 248]
Response line: 1073

Prompt line: Need Value (binding intensity of His-tagged CD38), LOOP15 conformational peptide array, item 9 (CRDQNFVILEFPVEEQC; Human sCD31 peptide) [compound 9]
Response line: 1110

Prompt line: Need Value (binding intensity of His-tagged CD38), LOOP15 conformational peptide array, item 234 (CLFYKDDVLFYNISSMC) [compound 234]
Response line: 497

Prompt line: Need Value (binding intensity of His-tagged CD38), LOOP15 conformational peptide array, item 258 (CQVTHLAQEFPEIIIQC) [compound 258]
Response line: 617

Prompt line: Need Value (binding intensity of His-tagged CD38), LOOP15 conformational peptide array, item 245 (CESYFIPEVRIYDSGTC) [compound 245]
Response line: 373

###

Target: recombinant His-tagged CD38 (Homo sapiens)
Experiment: Pepscan-based ELISA of His-tagged CD38 on CD31 peptide arrays
Assay type: binding
Conditions: mimic type BET (β-turn mimic, mP2 CLIPS); sample with the highest signal
Text: Different sets of sCD31 peptides were synthesized according to the following designs. Note that actual order of peptides on mini-cards in some was randomized. • Set #1 • Mimic type: linear • Label: LIN15 • Linear peptides of 15 consecutive amino acid residues in length, derived from the target sequence of sCD31 with an offset of […]. • Set #2 • Mimic type: single loop (mP2 CLIPS) • Label: LOOP7 • Constrained peptides of 9 amino acid residues in length. […]
So I've got a bunch of substances here, and I need their Value (binding intensity of His-tagged CD38), BET conformational peptide array values.
The figure you give is taken to be in mAU; do not add the unit.

Prompt line: Need Value (binding intensity of His-tagged CD38), BET conformational peptide array, item 278 (CESSRISKVSPGVVNITELFSC) [compound 278]
Response line: 637

Prompt line: Need Value (binding intensity of His-tagged CD38), BET conformational peptide array, item 274 (CKMVKLKREKPGRDQNFVILEC) [compound 274]
Response line: 897

Prompt line: Need Value (binding intensity of His-tagged CD38), BET conformational peptide array, item 281 (CIVVSEMLSQPGISYDAQFEVC) [compound 281]
Response line: 414

Prompt line: Need Value (binding intensity of His-tagged CD38), BET conformational peptide array, item 13 (CVESSRISKVPGIVVNITELFC; Human sCD31 peptide) [compound 13]
Response line: 943

Prompt line: Need Value (binding intensity of His-tagged CD38), BET conformational peptide array, item 284 (CEVLRVKVIAPGDEVQISILSC) [compound 284]
Response line: 447

Prompt line: Need Value (binding intensity of His-tagged CD38), BET conformational peptide array, item 270 (CYKDDVLFYNPGSMKSTESYFC) [compound 270]
Response line: 378

Prompt line: Need Value (binding intensity of His-tagged CD38), BET conformational peptide array, item 273 (CVLFYNISSMPGTESYFIPEVC) [compound 273]
Response line: 632

Cited source: patent US20230357354A1
